# target desc: UniProt Q9NZQ7
# test: T cell activation luciferase reporter cell culture system (T Cell Activation Assay)
# Format: cell-based
# condition details: luciferase reporter assay; PD-L1 aAPC/CHO-K1 cells with PD-1 effector Jurkat T cells
Each item that follows carries a reported EC50.
outcome measure: EC50 (nM)

INSERT INTO measurements (sample_smiles, outcome_measure, rel, endpoint_result) VALUES
  ('COc1nc(-c2cccc(-c3ccnc(-c4ccc5c(c4)CN(CCNC[C@@H]4CCC(=O)N4)C5=O)c3Cl)c2Cl)ccc1CN1CC2(C1)CN(C(C)=O)C2', 'EC50', '≥', 10000),
  ('COc1cc(-c2nccc(-c3cccc(-c4ccc(CNC[C@H](C)O)c(OC)n4)c3Cl)c2Cl)ccc1CNC[C@H](C)O', 'EC50', '=', 19.7),
  ('COc1cc(-c2nccc(-c3cccc(-c4ccn5c(=O)c(CNC[C@@H]6CCC(=O)N6)cnc5c4)c3Cl)c2Cl)ccc1CNC[C@@H]1CCC(=O)N1', 'EC50', '=', 300),
  ('COc1cc(-c2nccc(-c3cccc(NC(=O)c4ccc(CNCCO)cn4)c3C)c2Cl)ccc1CNC1CCN(C(C)=O)CC1', 'EC50', '=', 124);

###

# target desc: PD-L1 His protein / PD-1 Fc protein (Homo sapiens (Human), UniProt Q9NZQ7)
# test: HTRF Assay (PD-1/PD-L1 interaction)
# Type: binding
# condition details: PD-L1 His 6 nM, PD-1 Fc 6 nM
pIC50: −log10 of the molar value.
outcome measure: pIC50

INSERT INTO assay_data (sample_smiles, target_desc, outcome_measure, endpoint_result) VALUES
  ('COc1nc(-c2cccc(-c3ccnc(-c4ccc5c(c4)S(=O)(=O)CCNC5)c3Cl)c2Cl)ccc1CNC[C@@H]1CCC(=O)N1', 'PD-L1 His protein / PD-1 Fc protein (Homo sapiens (Human), UniProt Q9NZQ7)', 'pIC50', 8.75),
  ('COc1nc(-c2cccc(-c3ccnc(-c4ccc5c(CNC6CCC(F)(F)CC6)cn(C)c5c4)c3Cl)c2Cl)ccc1CNC[C@@H]1CCC(=O)N1', 'PD-L1 His protein / PD-1 Fc protein (Homo sapiens (Human), UniProt Q9NZQ7)', 'pIC50', 9.05),
  ('COc1cc(-c2ccnc(-c3cccc(-c4ccc(CNC5CCN(C(C)=O)CC5)c(OC)n4)c3Cl)c2Cl)ccc1CNC1CCN(C(C)=O)CC1', 'PD-L1 His protein / PD-1 Fc protein (Homo sapiens (Human), UniProt Q9NZQ7)', 'pIC50', 8.81);

###

# target desc: human PD-L1 (Homo sapiens (Human))
# Sequence (Q9NZQ7 19-290): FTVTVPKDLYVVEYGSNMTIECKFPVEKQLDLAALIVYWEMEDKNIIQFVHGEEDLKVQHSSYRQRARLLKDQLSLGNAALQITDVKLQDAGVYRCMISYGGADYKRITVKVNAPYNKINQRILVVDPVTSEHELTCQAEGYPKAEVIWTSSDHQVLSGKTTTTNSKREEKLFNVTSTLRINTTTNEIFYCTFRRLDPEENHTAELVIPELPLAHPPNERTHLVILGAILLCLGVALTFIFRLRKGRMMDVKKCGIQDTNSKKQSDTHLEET
# test: T cell activation luciferase reporter cell culture system (T Cell Activation Assay)
# Format: cell-based
# condition details: luciferase reporter assay; PD-L1 aAPC/CHO-K1 cells with PD-1 effector Jurkat T cells
Each item that follows carries a reported EC50.
outcome measure: EC50 (µM)

INSERT INTO results (molecule, outcome_measure, scale_unit, rel, endpoint_result) VALUES
  ('COc1cc(-c2nccc(-c3cccc(-c4ccc5c(OC)c(CNC6CCN(C(C)=O)CC6)cc(Cl)c5n4)c3Cl)c2Cl)ccc1CNC[C@@H]1CCC(=O)N1 [Example 241]', 'EC50', 'µM', '≥', 10),
  ('COc1cc(-c2nccc(-c3cccc(-c4ccc(CNCCO)c(OC)n4)c3C(F)(F)F)c2Cl)ccc1CNCCO [Example 612]', 'EC50', 'µM', '≥', 10),
  ('COc1cc(-c2nccc(-c3cccc(-c4ccc(CN5CCNC(=O)C5)c(OC)n4)c3Cl)c2Cl)ccc1CN1CCNC(=O)C1 [Example 457]', 'EC50', 'µM', '≥', 10),
  ('COc1nc(-c2cccc(-c3ccnc(-c4ccc(CN5CC6(C5)CN(C(C)=O)C6)c(OC(F)F)c4)c3Cl)c2Cl)ccc1CNC1CCOCC1 [Example 663]', 'EC50', 'µM', '=', 0.0399),
  ('CNCc1ccc(-c2cccc(-c3ccnc(-c4ccc(CN5CC[C@H](C(=O)OC(C)C)C5)c(OC)c4)c3Cl)c2Cl)nc1OC [Example 278]', 'EC50', 'µM', '=', 0.258),
  ('COc1cc(-c2cccc(-c3ccnc(-c4cnc(CN5CC6(CNC(=O)C6)C5)c(OC)c4)c3Cl)c2Cl)cnc1CN1CC2(CNC(=O)C2)C1 [Compound 569]', 'EC50', 'µM', '=', 0.58),
  ('CCC(=O)N1CCC(NCc2ccc(-c3nccc(-c4cccc(-c5ccc(CNC6CCN(C(=O)CC)CC6)c(OC)n5)c4Cl)c3Cl)cc2OC)CC1 [Example 344]', 'EC50', 'µM', '=', 0.0149),
  ('COc1cc(-c2nccc(-c3cccc(-c4ccc(CNC5CCN(C(C)=O)CC5)c(OC)n4)c3Cl)c2Cl)ccc1CN1CC2(CNC(=O)C2)C1 [Example 244]', 'EC50', 'µM', '=', 0.0252);
